assay: Cytotoxicity against dog MDCK cells assessed as cell death incubated for 48 hrs by MTT assay; assay type: cell-based, Canis lupus familiaris; settings: read-out: CTD50
We label by threshold. Values of CC50 at 48 h strictly beneath 400 µM are true (1). Values of 400 µM and up are false (0).

These recorded examples may help you get a feel for the data.
[[record]]
smiles_str = "CC1(C)[C@@H]2CC[C@@]1(C)/C(=N/CCSc1ncccn1)C2"
label_value = "false (0)"

[[record]]
smiles_str = "NC(=O)c1ncn([C@@H]2O[C@H](CO)[C@@H](O)[C@H]2O)n1"
label_value = "false (0)"

[[record]]
smiles_str = "CC1CCN(CC/N=C2\\C[C@H]3CC[C@]2(C)C3(C)C)CC1"
label_value = "true (1)"


Qu. Answer whether the compound CC1(C)[C@@H]2CC[C@@]1(C)/C(=N/CCSc1nc3ccccc3s1)C2 has CC50 at 48 h strictly less than 400 µM
Ans. true (1)

Qu. Further, for CC1(C)[C@@H]2CC[C@@]1(C)/C(=N/CCSc1nnc[nH]1)C2 ?
Ans. true (1)

Qu. Try CCN1CCN(CC/N=C2\C[C@H]3CC[C@]2(C)C3(C)C)CC1 next.
Ans. true (1)

Qu. Can you handle CC1(C)[C@@H]2CC[C@@]1(C)/C(=N/CCN1CCCCC1)C2 next?
Ans. false (0)

Qu. Could you do the same for CC1(C)[C@@H]2CC[C@@]1(C)/C(=N/CCN1CCNCC1)C2 , please?
Ans. false (0)

Qu. Same question, Cn1ccnc1SCC/N=C1\C[C@H]2CC[C@]1(C)C2(C)C this time
Ans. false (0)

Qu. Also CC1(C)[C@@H]2CC[C@@]1(C)/C(=N/CCSc1ccccn1)C2 ?
Ans. false (0)

====

Reported selectivity ratio by item:
test: in vitro; conditions: dog, MDCK cells
Description: Selectivity index, ratio of CTD50 for dog MDCK cells to IC50 for Influenza A virus (A/Puerto Rico/8/34 (H1N1)) pdm09 infected in MDCK cells
Form rule: numeric answer, no unit written next to it.

[[record]]
smiles_str = "CC1(C)[C@@H]2CC[C@@]1(C)/C(=N/CCN1CCNCC1)C2"
test_readout = "selectivity ratio"
measured_value = 33


Qu. Dear colleague, I am looking for the recorded selectivity ratio of the following molecule: CC1(C)[C@@H]2CC[C@@]1(C)/C(=N/CCSc1ccc(Cl)cc1)C2
Ans. 4

Qu. Continue with CC1(C)[C@@H]2CC[C@@]1(C)/C(=N/CCSc1nnc[nH]1)C2
Ans. 8

Qu. Next up: CC1(C)[C@@H]2CC[C@@]1(C)/C(=N/CCSc1ncccn1)C2
Ans. 183

Qu. Entry to check: CC1(C)[C@@H]2CC[C@@]1(C)/C(=N/CCSc1nc3ccccc3s1)C2
Ans. 20

====

Catalogue of molecules with associated CC50 at 48 h
assay: Cytotoxicity against dog MDCK cells assessed as cell death incubated for 48 hrs by MTT assay; type: cell-based, Canis lupus familiaris; conditions: read-out: CTD50

Sample records with CC50 at 48 h:
[[record]]
smiles_str = "CC1(C)[C@@H]2CC[C@@]1(C)/C(=N/CCSc1nc3ccccc3[nH]1)C2"
test_readout = "CC50 at 48 h"
measured_value = "406 µM"

[[record]]
smiles_str = "CC1(C)[C@@H]2CC[C@@]1(C)/C(=N/CCN1CCC(O)CC1)C2"
test_readout = "CC50 at 48 h"
measured_value = "> 1030 µM"

[[record]]
smiles_str = "CN1CCN(CC/N=C2\\C[C@H]3CC[C@]2(C)C3(C)C)CC1"
test_readout = "CC50 at 48 h"
measured_value = "1080 µM"

[[record]]
smiles_str = "CC1(C)[C@@H]2CC[C@@]1(C)/C(=N/CCSc1ccc(Cl)cc1)C2"
test_readout = "CC50 at 48 h"
measured_value = "170 µM"


Qu. # CC50 at 48 h lookup, item CC1(C)[C@@H]2CC[C@@]1(C)/C(=N/CCSC1=NCCS1)C2
Ans. 753 µM

Qu. Moving on to CC1(C)[C@@H]2CC[C@@]1(C)/C(=N/CCN1CCCC1)C2
Ans. > 1260 µM

====

Documented selectivity ratio across a set of compounds
test: in vitro; settings: dog, MDCK cells
// keep it numeric: no unit symbol after the value

Answered cases to consult:
[[record]]
smiles_str = "CC1CCN(CC/N=C2\\C[C@H]3CC[C@]2(C)C3(C)C)CC1"
measured_value = 12

[[record]]
smiles_str = "CCN1CCN(CC/N=C2\\C[C@H]3CC[C@]2(C)C3(C)C)CC1"
measured_value = 2

[[record]]
smiles_str = "Cn1ccnc1SCC/N=C1\\C[C@H]2CC[C@]1(C)C2(C)C"
measured_value = 3


Now for the compound whose selectivity ratio we want.
Qu. # input compound: CN1CCN(CC/N=C2\C[C@H]3CC[C@]2(C)C3(C)C)CC1 ; wanted: its selectivity ratio
Ans. 24
